Measured growth activity index values are reported for all entries that follow.
tested on: Pseudogymnoascus destructans 20631-21; experiment: growth activity index (DuctApe, 0 = no growth, 9 = maximal growth) (index 0-9); higher = more fungal growth (less inhibition), active = 0 or less; extreme values may be limits of the assay; conditions: concentration level (1-4, increasing; Biolog proprietary): 3; temperature: 13 °C; YPD
// return just the number, without any unit appended

Prompt: // growth activity index lookup, key: N=C(N)c1ccc(OCCCCCOc2ccc(C(=N)N)cc2)cc1 [Pentamidine Isethionate] (Biolog plate: PM24)
Response: 8

Prompt: // growth activity index lookup, key: CCCCCCCCCCCC[N+](C)(C)C [Dodecyltrimethyl ammonium bromide] (Biolog plate: PM21)
Response: 0

Prompt: // growth activity index lookup, key: [Na+].[O]=[V](=[O])[O-] [Sodium metavanadate] (Biolog plate: PM22)
Response: 5

Prompt: // growth activity index lookup, key: CN[C@@H]1[C@@H](O[C@H]2O[C@H](CO)[C@@H](N)[C@H](O)[C@H]2O)OC2C[C@@H](N)[C@@H](O[C@H]3[C@H](O)[C@@H](O)[C@H](N)C[C@@H]3N)OC2[C@@H]1O (some centres not stated) [Apramycin] (Biolog plate: PM24)
Response: 7.67

Prompt: // growth activity index lookup, key: O=C(O)CN(CCOCCOCCN(CC(=O)O)CC(=O)O)CC(=O)O (Biolog plate: PM24)
Response: 4

Others:
Prompt: // growth activity index lookup, key: Cc1cc(N)c2ccccc2[n+]1CCCCCCCCCC[n+]1c(C)cc(N)c2ccccc21 [Dequalinium chloride] (Biolog plate: PM23)
Response: 2

Prompt: // growth activity index lookup, key: NC(=O)NO [Hydroxyurea] (Biolog plate: PM25)
Response: 0

###

system: Pseudogymnoascus destructans 20631-21; experiment: growth activity index (DuctApe, 0 = no growth, 9 = maximal growth) (index 0-9); higher = more fungal growth (less inhibition), active = 0 or less; extreme values may be limits of the assay; conditions: concentration level (1-4, increasing; Biolog proprietary): 4; temperature: 13 °C; YPD
Give one outcome, nothing more. List: 1 = active, 0 = inactive

See these solved cases before continuing.
Prompt: Kindly provide the recorded test outcome for the following compound: OB(O)O [Boric acid] (Biolog plate: PM22)
Response: 1

Prompt: Kindly provide the recorded test outcome for the following compound: [Cl-].[Li+] [Lithium chloride] (Biolog plate: PM22)
Response: 1

Prompt: Kindly provide the recorded test outcome for the following compound: [I-].[K+] [Potassium iodide] (Biolog plate: PM22)
Response: 1

Others:
Prompt: Kindly provide the recorded test outcome for the following compound: O=C(O)/C=C/C(=O)O [Fumaric acid] (Biolog plate: PM25)
Response: 0

Prompt: Kindly provide the recorded test outcome for the following compound: CCCCCCCC(=O)[O-].[Na+] [Sodium Caprylate] (Biolog plate: PM23)
Response: 0

Prompt: Kindly provide the recorded test outcome for the following compound: O=C([O-])CC(O)(CC(=O)[O-])C(=O)[O-].[Na+].[Na+].[Na+] [Citric acid Trisodium Salt] (Biolog plate: PM25)
Response: 0

Prompt: Kindly provide the recorded test outcome for the following compound: N.N.O=S(=O)(O)O [Ammonium Sulfate] (Biolog plate: PM23)
Response: 0

###

test system: Pseudogymnoascus destructans 20631-21; experiment: growth activity index (DuctApe, 0 = no growth, 9 = maximal growth) (index 0-9); higher = more fungal growth (less inhibition), active = 0 or less; extreme values may be limits of the assay; conditions: concentration level (1-4, increasing; Biolog proprietary): 1; temperature: 13 °C; YPD
Give one outcome, nothing more. List: y = active, n = inactive

See these solved cases before continuing.
Prompt: Kindly provide the recorded test outcome for the following molecule: O=S(O)(O)=S [Sodium Thiosulfate] (Biolog plate: PM23)
Response: n

Prompt: Kindly provide the recorded test outcome for the following molecule: O=[Si](O)O [Sodium metasilicate] (Biolog plate: PM24)
Response: n

Others:
Prompt: Kindly provide the recorded test outcome for the following molecule: [Cl][Pd][Cl] [Palladium(II) Chloride] (Biolog plate: PM25)
Response: n

Prompt: Kindly provide the recorded test outcome for the following molecule: [I-].[K+] [Potassium iodide] (Biolog plate: PM22)
Response: y

Prompt: Kindly provide the recorded test outcome for the following molecule: NNC(=O)c1ccncc1 [Isoniazid] (Biolog plate: PM24)
Response: n

###

test system: Pseudogymnoascus destructans 20631-21; test: growth activity index (DuctApe, 0 = no growth, 9 = maximal growth) (index 0-9); higher = more fungal growth (less inhibition), active = 0 or less; extreme values may be limits of the assay; conditions: concentration level (1-4, increasing; Biolog proprietary): 1; temperature: 13 °C; YPD
Value Kind: growth activity index
// return just the number, without any unit appended

# annotated cases, reported growth activity index shown
Prompt: // growth activity index lookup, key: N[C@H](CO)C(=O)O [D-Serine] (Biolog plate: PM22)
Response: 5

Prompt: // growth activity index lookup, key: NC[C@@H]1O[C@H](O[C@H]2[C@@H](O)[C@H](O[C@@H]3[C@@H](O)[C@H](N)C[C@H](N)[C@H]3O[C@H]3O[C@H](CO)[C@@H](O)[C@H](O)[C@H]3N)O[C@@H]2CO)[C@H](N)[C@@H](O)[C@@H]1O [Paromomycin] (Biolog plate: PM22)
Response: 1

Turning now to a further compound:
Prompt: // growth activity index lookup, key: OCC1OC(O)CC(O)C1O [2-Deoxy-D-glucose] (Biolog plate: PM23)
Response: 4.67

###

Measured growth activity index values are reported for all entries that follow.
test system: Pseudogymnoascus destructans 20631-21; experiment: growth activity index (DuctApe, 0 = no growth, 9 = maximal growth) (index 0-9); higher = more fungal growth (less inhibition), active = 0 or less; extreme values may be limits of the assay; conditions: concentration level (1-4, increasing; Biolog proprietary): 2; temperature: 13 °C; YPD
Counter-ions that a name gives are not always drawn.
// return just the number, without any unit appended

# annotated cases, reported growth activity index shown
Prompt: // growth activity index lookup, key: On1ccccc1=S [1-Hydroxypyridine-2-thione (pyrithione)] (Biolog plate: PM21)
Response: 4

Prompt: // growth activity index lookup, key: COc1ccc2cc3[n+](cc2c1OC)CCc1cc2c(cc1-3)OCO2 [Berberine Chloride] (Biolog plate: PM24)
Response: 4.67

Prompt: // growth activity index lookup, key: c1ccc(-c2nn(-c3ccccc3)[n+](-c3cccc4ccccc34)n2)cc1 [Tetrazolium violet] (Biolog plate: PM25)
Response: 3

Prompt: // growth activity index lookup, key: N[C@H](CO)C(=O)O [D-Serine] (Biolog plate: PM22)
Response: 4.67

Prompt: // growth activity index lookup, key: CN(C)CCC=C1c2ccccc2CCc2ccccc21 [Amitriptyline] (Biolog plate: PM25)
Response: 0

Prompt: // growth activity index lookup, key: CC(C)Cc1ccc(C(C)C(=O)O)cc1 (stereo not drawn) [Ibuprofen] (Biolog plate: PM25)
Response: 4.67

Prompt: // growth activity index lookup, key: NCCSCC(N)C(=O)O (stereo not drawn) [Thialysine] (Biolog plate: PM24)
Response: 4

Prompt: // growth activity index lookup, key: O=[Si](O)O [Sodium metasilicate] (Biolog plate: PM24)
Response: 2.67

Prompt: // growth activity index lookup, key: CC(CN1c2ccccc2Sc2ccccc21)N(C)C (stereo not drawn) [Promethazine] (Biolog plate: PM21)
Response: 0

Prompt: // growth activity index lookup, key: O=C(O)C(O)C(O)C(=O)O (stereo not drawn) [Tartaric acid] (Biolog plate: PM25)
Response: 2

Others:
Prompt: // growth activity index lookup, key: O=P(O)(O)OP(=O)(O)O [Sodium pyrophosphate] (Biolog plate: PM24)
Response: 4.67

Prompt: // growth activity index lookup, key: N[C@@H]1CONC1=O [D-Cycloserine] (Biolog plate: PM21)
Response: 5

Prompt: // growth activity index lookup, key: [I-].[K+] [Potassium iodide] (Biolog plate: PM22)
Response: 0

Prompt: // growth activity index lookup, key: O=C(O)CN(CCN(CC(=O)O)CC(=O)O)CC(=O)O (Biolog plate: PM21)
Response: 5

Prompt: // growth activity index lookup, key: NNC(=O)c1ccncc1 [Isoniazid] (Biolog plate: PM24)
Response: 5

Prompt: // growth activity index lookup, key: [Na+].[O]=[V](=[O])[O-] [Sodium metavanadate] (Biolog plate: PM22)
Response: 4.33

Prompt: // growth activity index lookup, key: N=C(N)N [Guanidine hydrochloride] (Biolog plate: PM21)
Response: 5

Prompt: // growth activity index lookup, key: O.O=S(=O)([O-])[O-].O=S(=O)([O-])[O-].O=S(=O)([O-])[O-].[Al+3].[Al+3] [Aluminum sulfate] (Biolog plate: PM24)
Response: 4

###

test system: Pseudogymnoascus destructans 20631-21; experiment: growth activity index (DuctApe, 0 = no growth, 9 = maximal growth) (index 0-9); higher = more fungal growth (less inhibition), active = 0 or less; extreme values may be limits of the assay; conditions: concentration level (1-4, increasing; Biolog proprietary): 1; temperature: 13 °C; YPD;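 also: biolog Phenotype Microarray plates PM21–25, OD595 followed daily over 11 days, growth curves converted to index, mean of two independent experiments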
Give one outcome, nothing more. List: active, inactive

See these solved cases before continuing.
Prompt: Kindly provide the recorded test outcome for the following molecule: O=S(=O)([O-])[O-].[Cu+2] [Copper (II) sulfate] (Biolog plate: PM21)
Response: inactive

Prompt: Kindly provide the recorded test outcome for the following molecule: NC(=O)NO [Hydroxyurea] (Biolog plate: PM25)
Response: inactive

Prompt: Kindly provide the recorded test outcome for the following molecule: O=C([O-])CC(O)(CC(=O)[O-])C(=O)[O-].[Na+].[Na+].[Na+] [Citric acid Trisodium Salt] (Biolog plate: PM25)
Response: inactive

Prompt: Kindly provide the recorded test outcome for the following molecule: [Cl][Cu][Cl] [Cupric chloride] (Biolog plate: PM23)
Response: inactive

Prompt: Kindly provide the recorded test outcome for the following molecule: c1ccc(-c2ccccn2)nc1 [2,2`-Dipyridyl] (Biolog plate: PM21)
Response: inactive

Prompt: Kindly provide the recorded test outcome for the following molecule: [Cl-].[Li+] [Lithium chloride] (Biolog plate: PM22)
Response: active

Prompt: Kindly provide the recorded test outcome for the following molecule: N.N.O=S(=O)(O)O [Ammonium Sulfate] (Biolog plate: PM23)
Response: inactive

Prompt: Kindly provide the recorded test outcome for the following molecule: O=C(O)CCC(=O)O [Succinic acid] (Biolog plate: PM25)
Response: inactive

# evaluate next
Prompt: Kindly provide the recorded test outcome for the following molecule: [F-].[Na+] [Sodium Fluoride] (Biolog plate: PM24)
Response: inactive

Numbers sourced from the supplement of paper PMC6124720.
